System: PC-3
Assay: NCI tumour cell line growth inhibition, 48 h
Calls of active or inactive are those of the source. Rule as the data show it: active = GI50 up to about 1.1 µM and inactive = higher.
Classes used: active, inactive

# MOLECULE, LABEL VALUE
rows = [
    ("CC(C)=CCC[C@@H](C)C1=C(O)C(=O)C(C)=C(N)C1=O", "inactive"),
    ("O=C(O)c1ccccc1/N=N/c1c(O)c(S(=O)(=O)O)cc2cc(S(=O)(=O)O)ccc12", "inactive"),
    ("CN(C)c1ccc(C2C(Cl)C(=O)N2NC(=O)c2c(Cl)c(Cl)c(Cl)c(Cl)c2-c2nc3ccccc3[nH]2)cc1 (centres undefined)", "inactive"),
    ("CCOc1ccc(Nc2nc3c(s2)C(=O)c2ccccc2C3=O)cc1", "inactive"),
    ("C[C@H](CCC1=NCCN1)[C@H]1CC[C@H]2[C@@H]3CC[C@@H]4C[C@H](O)CC[C@]4(C)[C@H]3C[C@H](O)[C@]12C", "inactive"),
    ("C/C(=N\\NC(=S)N1CCN(c2ccccn2)CC1)c1nccs1", "active"),
    ("N#CC(NNC(=O)c1ccccc1O)c1c(O)ccc2ccccc12 (centres undefined)", "inactive"),
    ("COC1C(O)=C2C(=O)OC(C)(O)/C=C/C=C\\C=C/C=C/C(c3ccccc3)NC(=O)/C=C/C=C/C=C/C=C/C2(C)C1O (centres undefined)", "active"),
    ("CN(/N=C/c1cccs1)c1ccc([N+](=O)[O-])cc1[N+](=O)[O-]", "inactive"),
    ("CC1CCC2CC1NC(=O)CCOCCC(=O)NC2(C)C (centres undefined)", "inactive"),
    ("O=C1Nc2ccccc2/C1=C\\c1c(Cl)n(-c2ccccc2)c2ccccc12", "inactive"),
    ("O=C1CC2(CCC(O)(c3ccc(Cl)cc3)C(C(=O)c3ccc(Cl)cc3)C2)C(=O)c2ccccc2N1 (centres undefined)", "inactive"),
    ("C#CCn1c(=O)c2ccccc2n(CC#C)c1=O", "inactive"),
    ("CC(=O)c1ccccc1NCC(=O)Nn1cnc2ccc(S(=O)(=O)Nc3ccccc3C(C)=O)cc2c1=O", "inactive"),
    ("COC(=O)C1CCC(=S)N1C(C)=O (centres undefined)", "inactive"),
    ("C[C@H]1[C@@H](c2ccccc2)O[B-](c2ccccc2)(c2ccccc2)[N+]1(C)C", "active"),
    ("Cc1ccc(C(=O)Nc2ccc(CP(=O)(O)O)cc2CP(=O)(O)O)cc1NC(=O)Nc1cc(C(=O)Nc2ccc(CP(=O)(O)O)cc2CP(=O)(O)O)ccc1C", "inactive"),
    ("NC1CSc2ccccc2NC1=O (centres undefined)", "inactive"),
    ("CC(SC(=S)N1CCCCC1)C(=O)Nc1nnc(-c2ccc(Cl)cc2)o1 (centres undefined)", "inactive"),
]

###

System: SK-MEL-2
Assay: NCI tumour cell line growth inhibition, 48 h
Calls of active or inactive are those of the source. Cut-off read from the data, not from the text of the source: active = GI50 up to about 1.1 µM and inactive = higher.
ASSAY READOUT: GI50

# MOLECULE, MEASURED
records = [
    ("CCOP(=O)(OCC)C(C)(CC)NC (centres undefined)", "> 100 µM (inactive)"),
    ("Cn1c(=O)c(C(c2ccccc2)c2c(O)c3ccccc3n(C)c2=O)c(O)c2ccccc21", "> 100 µM (inactive)"),
    ("O=C(O)C[C@H]1CCCCC12CCOC2=O (some centres undefined)", "87.5 µM (inactive)"),
    ("O=C1C2C3C=C4c5ccccc5N(c5ccccc5)C4(C2C(=O)N1c1ccccc1)C1C(=O)N(c2ccccc2)C(=O)C31 (centres undefined)", "> 100 µM (inactive)"),
    ("Cc1cc(C)c(-n2[nH]c(=O)n(C)c2=O)c(C)c1", "> 100 µM (inactive)"),
    ("CCO[C@@H]1OC(=O)[C@](C)(C(C)=O)[C@@H]1C", "55.2 µM (inactive)"),
    ("C[C@H](CCC(=O)NCC(=O)O)[C@H]1CC[C@H]2[C@@H]3[C@H](O)C[C@@H]4C[C@H](O)CC[C@]4(C)[C@H]3CC[C@]12C", "> 100 µM (inactive)"),
    ("CC(=O)/C(=C/n1ccc(=O)[nH]c1=S)C(=O)Nc1ccccc1C", "> 100 µM (inactive)"),
    ("COc1ccc(C(=O)C(C(=O)CCC(=O)Nc2cccc(Cl)c2)c2ccc(OC)cc2)cc1 (centres undefined)", "> 100 µM (inactive)"),
]

###

Test system: SNB-75
Test: NCI tumour cell line growth inhibition, 48 h
Calls of active or inactive are those of the source. Cut-off read from the data, not from the text of the source: active = GI50 up to about 1.1 µM and inactive = higher.
Possible outcomes: active, inactive

# COMPOUND, LABEL VALUE
measured = [
    ("CN(C)CCNc1nc(-c2cccs2)cc(-c2cccs2)n1", "inactive"),
    ("Cc1cc2c3c(c1)CCCN3CCC2", "inactive"),
    ("COC(=O)NN1C(=O)C(=P(c2ccccc2)(c2ccccc2)c2ccccc2)C(C(=O)OC)=C1C", "inactive"),
    ("CC(NC(=O)c1ccccc1)C(=O)N(Cc1ccccc1)Cc1ccccc1 (stereo unspecified)", "inactive"),
    ("Cc1cn(CCOCCOC(=O)NC(CCCNC(N)=O)C(=O)O)c(=O)[nH]c1=O (stereo unspecified)", "inactive"),
    ("Cc1cc(Br)ccc1/N=N/c1c(C)nn(-c2ccccc2)c1-c1ccccc1", "inactive"),
    ("Clc1ccc(-c2nnc3sc4nc5ccccc5c-4nn23)c(Cl)c1", "inactive"),
    ("CC(=O)N1CC(=O)N2C(=O)/C(=C/c3ccc(Cl)cc3)N=C12", "inactive"),
    ("Nc1nc(O)c2nc(N)n(Cc3ccccc3)c2n1", "inactive"),
    ("CC(=O)OC1CC2CCC1(C)C2(C)C (stereo unspecified)", "inactive"),
    ("Cc1c/c(=N/NC(=O)c2ccncc2)n2nc(N)sc2n1", "inactive"),
    ("Cc1ccc(C(=O)Nc2ccc(CP(=O)(O)O)cc2CP(=O)(O)O)cc1NC(=O)Nc1cc(C(=O)Nc2ccc(CP(=O)(O)O)cc2CP(=O)(O)O)ccc1C", "inactive"),
    ("Cc1nc2ccc(F)cc2c2c1CCS2", "inactive"),
    ("NCc1ccccc1-c1c2nc(c(-c3ccccc3CN)c3ccc([nH]3)c(-c3ccccc3CN)c3nc(c(-c4ccccc4CN)c4ccc1[nH]4)C=C3)C=C2", "inactive"),
    ("C/C=C/COC(=O)CO[N+](=O)[O-]", "inactive"),
    ("O=C1CC2(CCC(O)(c3ccc(Cl)cc3)C(C(=O)c3ccc(Cl)cc3)C2)C(=O)c2ccccc2N1 (stereo unspecified)", "active"),
    ("O=C(/C=C1\\Nc2ncccc2N=C1CC(=O)c1ccccc1)c1ccccc1", "inactive"),
    ("O=C1NCN(c2ccccc2)C12CCN(CCCN1CCN(CCOC(c3ccccc3)c3ccccc3)CC1)CC2", "inactive"),
    ("O=[N+]([O-])c1ccc(O)c(/C=N/NC(=S)N2CCCCC2)c1", "inactive"),
    ("Cn1c2ccc(F)cc2c2ccc3c(c21)C(=O)C=CC3=O", "inactive"),
    ("C[n+]1cc2cc(O)c(O)cc2c2ccc3cc(O)c(O)cc3c21.c1ccncc1", "inactive"),
]

###

Test system: NCI-H226
Experiment: NCI tumour cell line growth inhibition, 48 h
Activity calls are given as the source filed them. Cut-off read from the data, not from the text of the source: active = GI50 up to about 1.1 µM and inactive = higher.
// GI50 lookup, one value per entry
ASSAY READOUT: GI50

# COMPOUND, ASSAY READOUT, MEASURED
measured = [
    ("C=CCOC(=O)Cn1cnc2c(N)ncnc21", "GI50", "> 100 µM (inactive)"),
    ("CCOc1ccc(/N=N/c2c(-c3ccccc3)nn(C(=O)CC(=O)Nc3ccccc3Cl)c2-c2ccccc2)cc1", "GI50", "65.9 µM (inactive)"),
    ("O=c1c2cc([N+](=O)[O-])ccc2[nH]n1Cc1ccccn1", "GI50", "> 100 µM (inactive)"),
    ("COc1cc(/C=C/c2cccnc2)cc(OC)c1OC", "GI50", "> 100 µM (inactive)"),
    ("N#Cc1cnn2cc[nH]c12", "GI50", "> 100 µM (inactive)"),
    ("CC(C)C[C@H]1[C@@H](OCc2ccccc2)COS(=O)N1[C@H](C)c1ccccc1 (stereo partly drawn)", "GI50", "10.9 µM (inactive)"),
    ("O=C(O)C[C@H]1CCCCC12CCOC2=O (stereo partly drawn)", "GI50", "> 100 µM (inactive)"),
    ("COc1cc(C2OC[C@@H]3C(=O)OC[C@H]23)cc(O)c1OC (stereo partly drawn)", "GI50", "> 100 µM (inactive)"),
    ("C1CSCCCSCCSCCCSC1", "GI50", "> 100 µM (inactive)"),
    ("C=CC(O)C#Cc1cnc(OC)nc1OC (stereo not drawn)", "GI50", "30.1 µM (inactive)"),
    ("O=C(Nc1ccc2oc(=O)c(C(=O)O)cc2c1)Oc1ccccc1", "GI50", "> 100 µM (inactive)"),
    ("CC(=O)OC1C/C(C)=C/CCC(C)/C=C/C2(C)CCC(C(C)(C)O)C12 (stereo not drawn)", "GI50", "45.1 µM (inactive)"),
    ("Cc1ccc(-c2cc(-c3ccccc3)c(C#N)c(=O)[nH]2)cc1", "GI50", "> 100 µM (inactive)"),
    ("Cc1[nH]c2ccccc2c1C1Cc2ccccc2N1C(=O)/C=C\\C(=O)O (stereo not drawn)", "GI50", "27.9 µM (inactive)"),
    ("COC(=O)/C=C\\S/C(=C(/c1ccccc1)n1ccc(C(=O)OC)n1)c1ccccc1", "GI50", "> 100 µM (inactive)"),
    ("CCc1cccc(C)c1NC(=O)C(=O)CC(=O)c1ccc(Cl)s1", "GI50", "> 100 µM (inactive)"),
    ("C=C1CC(Cn2ccc(=O)[nH]c2=O)(c2ccc(-c3ccccc3)cc2)OC1=O (stereo not drawn)", "GI50", "4.6 µM (inactive)"),
    ("CC(=O)Oc1cc(-c2oc3cc(OC(C)=O)c(C4OC(CO)C(O)C(O)C4O)c(OC(C)=O)c3c(=O)c2O)c(OC(C)=O)cc1O (stereo not drawn)", "GI50", "91.8 µM (inactive)"),
    ("Cc1cc(C)c(-n2[nH]c(=O)n(C)c2=O)c(C)c1", "GI50", "> 100 µM (inactive)"),
    ("Cc1c/c(=N/NC(=O)c2ccncc2)n2nc(N)sc2n1", "GI50", "> 100 µM (inactive)"),
    ("COc1ccc(S(=O)(=O)Nc2ccccc2C(=O)O)cc1", "GI50", "> 100 µM (inactive)"),
    ("Cc1cc2c(cc1C)[n+]([O-])c(C(=O)C/C(=N/OCCCc1ccccc1)C(=O)Nc1cc(Cl)ccc1Cl)c(C)[n+]2[O-]", "GI50", "> 100 µM (inactive)"),
    ("O=C1C(=O)N(C(=O)c2ccc(Cl)c(Cl)c2)c2ccccc21", "GI50", "44.9 µM (inactive)"),
    ("O=C(Oc1cccnc1)c1cc2cc(CCl)ccc2oc1=O", "GI50", "66.1 µM (inactive)"),
    ("CC(C)(C)N(Cc1ccoc1)C(=O)/C=C\\[S+]([O-])c1ccccc1 (stereo not drawn)", "GI50", "25.9 µM (inactive)"),
    ("NCc1ccccc1-c1c2nc(c(-c3ccccc3CN)c3ccc([nH]3)c(-c3ccccc3CN)c3nc(c(-c4ccccc4CN)c4ccc1[nH]4)C=C3)C=C2", "GI50", "13.9 µM (inactive)"),
    ("CC1(C)CC(=O)C(CC2C(=O)c3ccccc3C2=O)C(=O)C1C(=O)C(=O)Nc1cccc2ccc(O)cc12 (stereo not drawn)", "GI50", "29 µM (inactive)"),
    ("NNC(=S)N/N=C/C(Cl)=C(\\Cl)C(=O)O", "GI50", "> 100 µM (inactive)"),
]
